Target: T1, human CD33 (human, UniProt P20138 18-364)
T1 construct: CD33 on human primary dendritic cells, macrophages, monocytes and T cells and on CHO cells expressing recombinant human CD33; also called Siglec-3; hCD33
T1 sequence (P20138 18-364): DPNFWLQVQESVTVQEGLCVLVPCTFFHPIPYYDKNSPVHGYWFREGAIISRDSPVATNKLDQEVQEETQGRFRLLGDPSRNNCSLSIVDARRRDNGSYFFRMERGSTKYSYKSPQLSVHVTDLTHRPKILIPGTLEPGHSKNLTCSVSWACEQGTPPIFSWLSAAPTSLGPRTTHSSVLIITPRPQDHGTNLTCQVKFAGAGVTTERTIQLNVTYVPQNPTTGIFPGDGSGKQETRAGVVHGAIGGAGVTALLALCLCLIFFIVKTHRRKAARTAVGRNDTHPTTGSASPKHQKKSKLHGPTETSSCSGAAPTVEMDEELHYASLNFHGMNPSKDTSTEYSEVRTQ
Test: flow cytometry, human primary dendritic cells;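 also: binding of anti-CD33 antibodies (10 ug/ml, 1 h on ice) to human primary dendritic cells, detected with a PE-labelled secondary antibody, reported as flow cytometry MFI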
readout: DC MFI
Please state the value as a number alone, without comment.

The examples below pair each entry with its known result.
>>> observed("C-11 (antibody, V domains shown, human IgG1) VH: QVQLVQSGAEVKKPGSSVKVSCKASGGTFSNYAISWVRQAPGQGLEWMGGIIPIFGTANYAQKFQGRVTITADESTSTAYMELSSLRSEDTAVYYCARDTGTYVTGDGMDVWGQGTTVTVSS VL: EIVMTQSPATLSVSPGERATLSCRASQSVSSNLAWYQQKPGQAPRLLIYSASTRATGIPARFSGSGSGTEFTLTISSLQSEDFAVYYCQQYIVLPITFGGGTKVEIK")
1030
>>> observed("C-34 (antibody, V domains shown, human IgG1) VH: EVQLVESGGGLVQPGGSLRLSCAASGFTFSSYWMSWVRQAPGKGLEWVANINQDGSEKYYVDSVKGRFTISRDNAKNSLYLQMNSLRAEDTAVYYCARDHGATGPDFDLWGRGTLVTVSS VL: DIQMTQSPSSLSASVGDRVTITCRASQSISSYLNWYQQKPGKAPKLLIYGASSLQSGVPSRFSGSGSGTDFTLTISSLQPEDFATYYCQQQYLTPLTFGGGTKVEIK")
1440
>>> observed("C-28 (antibody, V domains shown, human IgG1) VH: EVQLVESGGGLVQPGGSLRLSCAASGFTFSSYWMSWVRQAPGKGLEWVANINQDGSEKYYVDSVKGRFTISRDNAKNSLYLQMNSLRAEDTAVYYCAREGRRTMNAFDIWGQGTMVTVSS VL: DIQMTQSPSSLSASVGDRVTITCRASQSISSYLNWYQQKPGKAPKLLIYGASSLQSGVPSRFSGSGSGTDFTLTISSLQPEDFATYYCQQGYDVPITFGGGTKVEIK")
1780
>>> observed("C-12 (antibody, V domains shown, human IgG1) VH: EVQLLESGGGLVQPGGSLRLSCAASGFTFSNYAMSWVRQAPGKGLEWVSAISGSGGSTYYADSVKGRFTISRDNSKNTLYLQMNSLRAEDTAVYYCARDGSRYSYGLVAYGMDVWGQGTTVTVSS VL: EIVLTQSPGTLSLSPGERATLSCRASQSVSSSFLAWYQQKPGQAPRLLIYGASSRATGIPDRFSGSGSGTDFTLTISRLEPEDFAVYYCQQSQLRPTFGGGTKVEIK")
1120
>>> observed("C-65 (antibody, V domains shown, human IgG1) VH: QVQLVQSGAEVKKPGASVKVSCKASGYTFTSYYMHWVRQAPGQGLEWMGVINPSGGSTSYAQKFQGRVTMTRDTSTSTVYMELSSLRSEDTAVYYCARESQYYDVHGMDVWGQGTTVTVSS VL: DIQMTQSPSSLSASVGDRVTITCRASQSISSYLNWYQQKPGKAPKLLIYAASSLQSGVPSRFSGSGSGTDFTLTISSLQPEDFATYYCQQQYTLPPTFGGGTKVEIK")
1330

Moving on to another binder below.
Request the reported DC MFI associated with C-44 (antibody, V domains shown, human IgG1) VH: QLQLQESGPGLVKPSETLSLTCTVSGGSISSSSYAWGWIRQPPGKGLEWIGSIYYSGSTYYNPSLKSRVTISVDTSKNQFSLKLSSVTAADTAVYYCAREGYVAAYGMDVWGQGTTVTVSS VL: DIQMTQSPSSLSASVGDRVTITCRASQSISSYLNWYQQKPGKAPKLLIYAASSLQSGVPSRFSGSGSGTDFTLTISSLQPEDFATYYCQQAYYPPWTFGGGTKVEIK
1520
